Biological target: USP7 (Homo sapiens)
Construct: USP7, construct USP7 (208-1102) 6*His, Viva Biotech; 6xHis (C); purchased Viva Biotech
Sequence (Q93009 208-1102): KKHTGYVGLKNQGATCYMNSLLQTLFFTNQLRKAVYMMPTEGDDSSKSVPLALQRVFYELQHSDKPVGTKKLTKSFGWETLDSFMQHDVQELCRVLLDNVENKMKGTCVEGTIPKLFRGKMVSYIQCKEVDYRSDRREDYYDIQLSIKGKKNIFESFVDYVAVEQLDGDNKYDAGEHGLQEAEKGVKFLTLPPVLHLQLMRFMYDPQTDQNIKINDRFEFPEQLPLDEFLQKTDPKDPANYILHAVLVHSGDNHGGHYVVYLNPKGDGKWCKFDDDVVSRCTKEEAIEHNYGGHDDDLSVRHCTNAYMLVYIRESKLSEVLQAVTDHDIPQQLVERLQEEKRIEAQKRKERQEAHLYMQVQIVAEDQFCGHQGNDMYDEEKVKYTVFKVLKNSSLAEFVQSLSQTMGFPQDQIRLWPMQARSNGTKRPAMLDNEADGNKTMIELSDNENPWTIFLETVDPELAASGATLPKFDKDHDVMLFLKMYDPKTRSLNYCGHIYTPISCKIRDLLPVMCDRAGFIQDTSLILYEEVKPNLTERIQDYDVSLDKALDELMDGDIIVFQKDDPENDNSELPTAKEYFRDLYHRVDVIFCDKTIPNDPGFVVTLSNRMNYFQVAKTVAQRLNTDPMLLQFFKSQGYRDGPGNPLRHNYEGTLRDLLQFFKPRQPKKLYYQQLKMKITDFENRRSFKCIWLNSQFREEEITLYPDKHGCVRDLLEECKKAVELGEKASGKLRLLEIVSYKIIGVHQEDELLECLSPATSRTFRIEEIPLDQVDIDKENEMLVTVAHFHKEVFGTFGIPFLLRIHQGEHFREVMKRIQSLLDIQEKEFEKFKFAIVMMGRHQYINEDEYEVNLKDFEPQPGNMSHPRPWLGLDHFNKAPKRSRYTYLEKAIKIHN
Test: USP7 Assay A (Ubitquin-Rhodamine 110 Assay)
Assay type: biochemical
Conditions: USP7 activity in USP7 assay A and B (table does not say which assay per compound); read-out: USP7_IC50
pIC50: −log10 of the molar value.
Answer each item with its documented pIC50.

# input Requested read-out: pIC50. Entry: Cn1cc(C2CCC(C(=O)N3CCC(O)(Cn4cnc5c(cnn5-c5ccc(F)cc5)c4=O)CC3)CC2)cn1 (centres unmarked) [Compound I-728]
# output 6.00 to 6.70

# input Requested read-out: pIC50. Entry: CN1CC(Oc2ccc(-n3ncc4c(=O)n(CC5(O)CCN(C(=O)c6ccc(F)cc6)CC5)cnc43)cc2)C1
# output > 6.70

# input Requested read-out: pIC50. Entry: Cn1cc(C(=O)N2CCC(O)(Cn3cnc4c(cnn4-c4ccc(F)cc4)c3=O)CC2)c(Cn2cccn2)n1
# output 5.00 to 6.00

# input Requested read-out: pIC50. Entry: Cc1cc(OC2CCC(C(=O)N3CCC(O)(Cn4cnc5c(cnn5-c5ccc(F)cc5)c4=O)CC3)CC2)no1 (centres unmarked) [Compound I-756]
# output 6.00 to 6.70

# input Requested read-out: pIC50. Entry: CN1CCN(c2ccc(-n3ncc4c(=O)n(CC5(O)CCN(C(=O)C6(C)CC6)CC5)cnc43)cc2)CC1C(F)F (centres unmarked)
# output 6.00 to 6.70

# input Requested read-out: pIC50. Entry: CN1CCN(c2ccn(-c3ccc(-n4ncc5c(=O)n(CC6(O)CCN(C(=O)C7CC7)CC6)cnc54)cc3)n2)CC1
# output > 6.70

# input Requested read-out: pIC50. Entry: C[C@@H](CC(=O)N1CCC(O)(Cn2cnc3c(cnn3-c3ccc(F)cc3)c2=O)CC1)n1ccc(F)n1
# output 5.00 to 6.00

# input Requested read-out: pIC50. Entry: O=C(c1ccc(Oc2ccccn2)cn1)N1CCC(O)(Cn2cnc3c(cnn3-c3ccc(F)cc3)c2=O)CC1
# output 5.00 to 6.00

# input Requested read-out: pIC50. Entry: O=C(C[C@H](C(F)F)n1ccc(F)n1)N1CCC(O)(Cn2cnc3c(cnn3-c3ccc(N4CC5CC5C4)cc3)c2=O)CC1 (some centres unmarked)
# output 6.00 to 6.70

# input Requested read-out: pIC50. Entry: O=C(C1CCC(Oc2cccnc2F)CC1)N1CCC(O)(Cn2cnc3c(cnn3-c3ccccc3)c2=O)CC1 (centres unmarked)
# output 6.00 to 6.70

# input Requested read-out: pIC50. Entry: CC1(C(=O)N2CCC(O)(Cn3cnc4c(cnn4-c4ccc(OCC5CC(F)(F)C5)cc4)c3=O)CC2)CC1
# output > 6.70

# input Requested read-out: pIC50. Entry: C[C@]1(O)CCN(c2ccc(-n3ncc4c(=O)n(CC5(O)CCN(C(=O)C[C@H](C(F)F)n6cccn6)CC5)cnc43)cc2)C1
# output > 6.70

# input Requested read-out: pIC50. Entry: Cn1cc(Oc2ccc(C(=O)N3CCC(O)(Cn4cnc5c(cnn5-c5ccc(F)cc5)c4=O)CC3)cc2)cn1
# output 5.00 to 6.00

# input Requested read-out: pIC50. Entry: O=C(c1cnc(C2CC2)o1)N1CCC(O)(Cn2cnc3c(cnn3-c3ccc(C4CCC4)cc3)c2=O)CC1
# output 6.00 to 6.70

---

Biological target: USP7 (Homo sapiens)
Construct: USP7, construct USP7 (208-1102) 6*His, Viva Biotech; 6xHis (C); purchased Viva Biotech
Test: USP7 Assay A (Ubitquin-Rhodamine 110 Assay)
Assay type: biochemical
Conditions: USP7 assay A and B (table does not say which assay per compound); read-out: USP7_IC50
pIC50: −log10 of the molar value.
MEASURED ENDPOINT: pIC50

# input Requested read-out: pIC50. Entry: C[C@@](O)(c1ccc(C(=O)N2CCC(O)(Cn3cnc4c(cnn4-c4ccc(F)cc4)c3=O)CC2)cc1)C(F)(F)F [Compound I-527]
# output 5.00 to 6.00

# input Requested read-out: pIC50. Entry: O=C(N[C@H]1CNCC1F)N1CCC(O)(Cn2cnc3c(cnn3-c3ccc(-c4ccccc4)cc3)c2=O)CC1 (stereo partly shown) [Compound I-664]
# output 5.00 to 6.00

# input Requested read-out: pIC50. Entry: Cc1ccc(-n2ncc3c(=O)n(CC4(O)CCN(C(=O)c5cnc(C6CC6)o5)CC4)cnc32)cc1 [Compound I-1542]
# output 6.00 to 6.70

# input Requested read-out: pIC50. Entry: CN(C(=O)c1ccc(C(=O)N2CCC(O)(Cn3cnc4c(cnn4C)c3=O)CC2)cc1)c1ccccc1 [Compound I-108]
# output 5.00 to 6.00

# input Requested read-out: pIC50. Entry: N#Cc1cccc(COc2ccc(-n3ncc4c(=O)n(CC5(O)CCN(C(=O)c6ccc(F)cc6)CC5)cnc43)cc2)c1 [Compound I-1318]
# output 5.00 to 6.00

# input Requested read-out: pIC50. Entry: O=C(C1CC1)N1CCC(O)(Cn2cnc3c(cnn3-c3ccc(Cl)cc3)c2=O)CC1 [Compound I-35]
# output 5.00 to 6.00

# input Requested read-out: pIC50. Entry: Cc1ccc(-n2ncc3c(=O)n(CC4(O)CCN(C(=O)C[C@H](C)c5ccccc5)CC4)cnc32)cc1 [Compound I-1139]
# output > 6.70

---

Molecular target: USP7 (Homo sapiens)
Construct: USP7, construct USP7 (208-1102) 6*His, Viva Biotech; 6xHis (C); purchased Viva Biotech
Assay: USP7 Assay A (Ubitquin-Rhodamine 110 Assay)
Type: biochemical
Details: USP7 activity in USP7 assay A and B (table does not say which assay per compound); read-out: USP7_IC50
pIC50: −log10 of the molar value.
MEASURED ENDPOINT: pIC50

# input Requested read-out: pIC50. Entry: Cc1ccn(-c2ccc(-n3ncc4c(=O)n(CC5(O)CCN(C(=O)C6(C)COC6)CC5)cnc43)cc2)n1
# output 5.00 to 6.00

# input Requested read-out: pIC50. Entry: O=C(c1nnc(C2CC2)o1)N1CCC(O)(Cn2cnc3c(cnn3-c3ccc(F)cc3)c2=O)CC1
# output 5.00 to 6.00

# input Requested read-out: pIC50. Entry: CC1(C(=O)N2CCC(O)(Cn3cnc4c(cnn4-c4ccc(N5CCC(C6COC6)CC5)cc4)c3=O)CC2)CC1
# output 6.00 to 6.70

# input Requested read-out: pIC50. Entry: CC1(C(=O)N2CCC(O)(Cn3cnc4c(cnn4-c4ccc(Cl)cc4)c3=O)CC2)CC1
# output 5.00 to 6.00

# input Requested read-out: pIC50. Entry: O=C(C1CC1)N1CCC(O)(Cn2cnc3c(cnn3-c3ccc(N4CCC5(CC4)CC(O)C5)cc3)c2=O)CC1
# output 5.00 to 6.00

# input Requested read-out: pIC50. Entry: C[C@@H]1CN(c2ccc(-n3ncc4c(=O)n(CC5(O)CCN(C(=O)C6(C)CC6)CC5)cnc43)cc2)CCN1C
# output > 6.70

# input Requested read-out: pIC50. Entry: Cn1nccc1O[C@H]1CC[C@H](C(=O)N2CCC(O)(Cn3cnc4c(ccn4-c4ccc(F)cc4)c3=O)CC2)CC1
# output 6.00 to 6.70

# input Requested read-out: pIC50. Entry: CC1(C(=O)N2CCC(O)(Cn3cnc4c(cnn4-c4ccc(-n5cccn5)cc4)c3=O)CC2)CCC1
# output > 6.70

# input Requested read-out: pIC50. Entry: CC1(C(=O)N2CCC(O)(Cn3cnc4c(cnn4-c4ccc(OCC5(F)CCC5)cc4)c3=O)CC2)CCC1
# output > 6.70

# input Requested read-out: pIC50. Entry: O=C(c1cnc(Oc2ccccn2)o1)N1CCC(O)(Cn2cnc3c(cnn3-c3ccc(Cl)cc3)c2=O)CC1
# output 5.00 to 6.00

# input Requested read-out: pIC50. Entry: CC1(C(=O)N2CCC(O)(Cn3cnc4c(cnn4-c4ccc(-c5cnn(C6CCOCC6)c5)cc4)c3=O)CC2)CC1
# output > 6.70

# input Requested read-out: pIC50. Entry: O=C(c1ccc(F)cc1)N1CCC(O)(Cn2cnc3c(cnn3-c3ccc(-n4ncc5c4CCOC5)cc3)c2=O)CC1
# output 6.00 to 6.70

# input Requested read-out: pIC50. Entry: O=C(C[C@H](C(F)F)n1ccc(F)n1)N1CCC(O)(Cn2cnc3c(cnn3-c3cccc(N4CCOCC4)c3)c2=O)CC1
# output 5.00 to 6.00

# input Requested read-out: pIC50. Entry: CC1(C(=O)N2CCC(O)(Cn3cnc4c(cnn4-c4cccc(N5CC(C(C)(C)O)C5)c4)c3=O)CC2)CC1
# output > 6.70

# input Requested read-out: pIC50. Entry: O=C(c1cnc(C2CC2)o1)N1CCC(O)(Cn2cnc3c(cnn3-c3ccc(-n4cc(Cl)cn4)cc3)c2=O)CC1
# output > 6.70

# input Requested read-out: pIC50. Entry: Cc1ccc(-n2ncc3c(=O)n(CC4(O)CCN(C(=O)C5CC(Oc6ccccn6)C5)CC4)cnc32)cc1 (stereo not drawn)
# output 5.00 to 6.00

# input Requested read-out: pIC50. Entry: CC(=O)N1CCC(O)(Cn2cnc3c(cnn3-c3ccc(Cl)cc3)c2=O)CC1
# output < 5.00

# input Requested read-out: pIC50. Entry: O=C(C1CC1)N1CCC(O)(Cn2cnc3c(cnn3-c3ccc(N4CCCc5ncccc54)cc3)c2=O)CC1
# output 5.00 to 6.00

# input Requested read-out: pIC50. Entry: Cc1ncc(C(=O)N2CCC(O)(Cn3cnc4c(cnn4-c4ccc(C5CCC5)cc4)c3=O)CC2)o1
# output 6.00 to 6.70

# input Requested read-out: pIC50. Entry: CN1CCN(c2cccc(-n3ncc4c(=O)n(CC5(O)CCN(C(=O)C[C@@H](C(F)F)n6cccn6)CC5)cnc43)c2)CC1
# output 6.00 to 6.70

# input Requested read-out: pIC50. Entry: CN1CCC2(CC1)CCN(c1ccc(-n3ncc4c(=O)n(CC5(O)CCN(C(=O)c6ccc(F)cc6)CC5)cnc43)cc1)CC2
# output > 6.70

# input Requested read-out: pIC50. Entry: O=C(C[C@@H](C(F)F)n1ccc(F)n1)N1CCC(O)(Cn2cnc3c(cnn3-c3ccc(C(F)(F)F)cc3)c2=O)CC1
# output 5.00 to 6.00

# input Requested read-out: pIC50. Entry: O=C(c1cnc(N2CCC(O)CC2)o1)N1CCC(O)(Cn2cnc3c(cnn3-c3ccc(F)cc3)c2=O)CC1
# output 5.00 to 6.00

# input Requested read-out: pIC50. Entry: C[C@H]1CN(c2ccc(-n3ncc4c(=O)n(CC5(O)CCN(C(=O)C6(C)CC6)CC5)cnc43)cc2)CCN1C
# output > 6.70

# input Requested read-out: pIC50. Entry: O=C(C1CCC(Oc2cccc(F)n2)CC1)N1CCC(O)(Cn2cnc3c(cnn3-c3ccccc3)c2=O)CC1 (stereo not drawn) [Compound I-742]
# output 6.00 to 6.70

# input Requested read-out: pIC50. Entry: Cc1ccn(-c2ccc(-n3ncc4c(=O)n(CC5(O)CCN(C(=O)C6(C)CC6)CC5)cnc43)cc2)n1
# output 6.00 to 6.70

# input Requested read-out: pIC50. Entry: CC1(C(=O)N2CCC(O)(Cn3cnc4c(cnn4-c4ccc(N5CCC(F)(F)CC5)cc4)c3=O)CC2)CC1
# output 6.00 to 6.70
